# measurement.notes: Pharmacokinetic evaluation in SD rats at different oral doses
# Assay type: in vivo, Sprague Dawley rats
# conditions.used: male, Sprague-Dawley, rat, plasma, po, 5 mg/kg, single oral administration 5 mg/kg, read-out: Area under the drug-time curve AUC0-last PO
Counter-ions that a name gives are not always drawn.
quantity.kind: AUC(0-t) (µM·h)

{"molecule": "CC(C)Oc1ccc(-c2nc(-c3cccc4c3CCC43CCN(CC4(C(=O)O)CC4)C3)no2)cc1C#N (single isomer, unassigned) [Compound 22B]", "measurement.units": "µM·h", "val": 33}
{"molecule": "CC(C)Oc1ccc(-c2nc(-c3cccc4c3CCC43CCN(CC4(C(=O)O)CC4)C3)no2)cc1C#N (centres unmarked) [Hydrochloride of compound 22]", "measurement.units": "µM·h", "val": 32.3}

----------
# measurement.notes: Pharmacokinetic evaluation in SD rats (intravenous and oral)
# Format: in vivo
# conditions.used: male, Sprague-Dawley, plasma; SD rat; intravenous 0.8 mg/kg, oral 2.4 mg/kg (route of Cmax not stated); read-out: Peak concentration Cmax
Counter-ions that a name gives are not always drawn.
quantity.kind: Cmax (ng/mL)

{"molecule": "CC(C)Oc1ccc(-c2nc(-c3cccc4c3CCC43CCN(CC4(C(=O)O)CC4)C3)no2)cc1C#N (stereo not shown) [Hydrochloride of compound 22]", "val": 1770}

----------
# target.of.assay: S1PR1 (Homo sapiens)
# Construct: expressed in transfected cells
# Sequence (P21453 whole entry): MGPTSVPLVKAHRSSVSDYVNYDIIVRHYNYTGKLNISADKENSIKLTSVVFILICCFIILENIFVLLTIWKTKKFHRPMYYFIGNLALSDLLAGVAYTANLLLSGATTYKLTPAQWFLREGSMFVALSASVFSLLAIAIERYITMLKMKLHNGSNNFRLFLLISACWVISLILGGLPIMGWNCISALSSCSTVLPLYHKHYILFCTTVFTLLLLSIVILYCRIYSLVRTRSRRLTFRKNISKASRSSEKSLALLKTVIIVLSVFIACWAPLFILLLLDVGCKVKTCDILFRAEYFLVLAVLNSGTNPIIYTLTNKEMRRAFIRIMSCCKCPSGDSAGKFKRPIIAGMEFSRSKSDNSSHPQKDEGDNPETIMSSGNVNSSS
# measurement.notes: In vitro S1PR1 agonistic activity, PathHunter cell line, chemiluminescent detection
# Assay type: cell-based
# conditions.used: 90-180 min at 37° C.
pEC50: −log10 of the molar value. Counter-ions that a name gives are not always drawn.
Decision: pEC50 compared against 10; not below it gives Y, below it gives N.

{"compound": "CC(C)Oc1ccc(-c2nc(-c3cccc4c3CCC43CCN(C(=O)CO)C3)no2)cc1C(F)F (stereo not shown)", "category": "N"}
{"compound": "CC(C)Oc1ccc(-c2ncc(-c3cccc4c3CCC43CCN(C(=O)CO)C3)cn2)cc1C#N (stereo not shown)", "category": "N"}
{"compound": "CC(C)Nc1ncc(-c2nc(-c3cccc4c3CCC43CCN(C(=O)CO)C3)no2)cc1C#N (stereo not shown)", "category": "N"}
{"compound": "O=C(O)C1(CN2CCC3(CCc4c(-c5noc(-c6ccc(C7CCCC7)c(C(F)(F)F)c6)n5)cccc43)C2)CC1 (stereo not shown) [Hydrochloride of compound 38]", "category": "Y"}
{"compound": "CC(C)Oc1ccc(-c2nc(-c3cccc4c3CCC43CCN(C(=O)[C@@H](O)CO)C3)no2)cc1C#N (stereo partly shown)", "category": "N"}

----------
Entries and their measured bioavailability follow.
# measurement.notes: Pharmacokinetic evaluation in SD rats (intravenous and oral)
# Type: in vivo
# conditions.used: male, Sprague-Dawley, plasma; SD rat; intravenous 1.0 mg/kg, oral 2.0 mg/kg; read-out: Bioavailability F
quantity.kind: bioavailability (%)

{"compound": "CC(C)Oc1ccc(-c2nc(-c3cccc4c3CCC43CCN(C(=O)[C@@H](O)CO)C3)no2)cc1C#N (some centres unmarked) [Compound 45]", "val": 59.2}
{"compound": "COc1cc(-c2nc(-c3cccc4c3CCC43CCN(CC4(C(=O)O)CC4)C3)no2)cc(C2CCCC2)n1 (centres unmarked) [Compound 40]", "val": 63.9}

Data provenance: patent US11760751B2
